test: basal CRE-LacZ reporter activity in PC12 – cell-based, unstimulated, primary screen (AID 1145); settings: no forskolin, luminescence, 4.5 h, higher = more signal, called active from +8 up or from −8 down
Each entry below lists one item and its recorded z-score value.
// return a plain number; no unit text

Example cases with answers are listed next.
compound="CN1C(=O)C2C=CC(C(O)c3c(F)cccc3Cl)N(NC(=O)OC(C)(C)C)C2C1=O (centres undefined)" numeric_result=0.622
compound=Cc1ccc(S[C@]2(C(=O)O)CC(=O)N(Cc3ccccc3C(F)(F)F)[C@@H]2c2ccc(CO)cc2I)cc1 numeric_result=-0.619
compound=C=CC[C@@]1(C(=O)N2CCCCC2)N=C(c2ccc(OCCCO)cc2)O[C@@H]1c1ccccc1CN=[N+]=[N-] numeric_result=3.77

For the next question, use this compound.
Please report the recorded z-score for C=CCNC(=O)[C@@H]1[C@H]2C(=O)O[C@H](c3ccccc3)[C@H](c3ccccc3)N2[C@H](c2ccc(OCCO)cc2)[C@@]12C(=O)N(C(=O)OCCOC)c1ccc(C#CCNC(N)=O)cc12 .
0.505

---

assay: probe aNog binding to arrayed compounds – biochemical, biotinylated probe, 635/667 nm fluorescence, primary screen (AID 1115); conditions: small-molecule microarray, higher = more signal;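 further: probe is biotinylated aNog protein used at 0.15 µg/mL for 1 h at 4 C; z-score combines 667 nm fluorescence of each spot with its signal to noise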
1 means recorded composite z-score is 0.1 or above; -1 means it is below 0.1.

These recorded examples may help you get a feel for the data.
compound=Cc1ccc(S[C@]2(C(=O)NCC(C)C)CC(=O)N(Cc3cc(C(F)(F)F)cc(C(F)(F)F)c3)[C@@H]2c2ccc(CO)cc2)cc1 cat=-1
compound="C[C@H]1C2[C@H](Cc3ccccc3)NC(=O)[C@]23C(=O)NCC(=O)N2CCC[C@H]2C(=O)NC/C=C/CCC/C=C/C3[C@@H]2O[C@]12C (stereo partly specified)" cat=-1
compound=C=C(CCCC)C(=O)CC[C@@H](OC(C)=O)c1ccc(CO)o1 cat=-1

Textbook exercise: given the entry COC(=O)C[C@H]1O[C@@H](CCc2ccccc2)[C@@H](C)[C@@H]1[Si](C)(C)c1ccc(OC)cc1 , state whether its composite z-score is greater than or equal to 0.1.
-1

Could you verify whether the entry CCN(CC)c1ccc(N2CC=CC34O[C@@H]5C=CCOC(=O)[C@@H]5[C@H]3C(=O)N(CCCCCCO)[C@@H]4C2=O)cc1 (stereo partly specified) shows composite z-score of no less than 0.1?
-1

Does the compound O=C1O[C@@H](c2ccccc2)[C@@H](c2ccccc2)N2[C@@H](c3ccccc3OCCO)[C@]3(C(=O)Nc4ccc(C#CC5(O)CCCCCC5)cc43)[C@@H](C(=O)N3CCN(c4ncccn4)CC3)[C@H]12 have recorded composite z-score that is 0.1 or more?
1

Reported composite z-score at or above 0.1? C#CCN1[C@H](/C=C/C2CC2)[C@H](Cc2ccccc2)OC(=O)[C@@H]1Cc1ccccc1
-1

State whether the measured composite z-score reaches 0.1, counting equality as reaching it, for C#CCOc1ccc(C[C@@H](C(=O)OC)N(CC#C)[C@@H](/C=C/C2CC2)[C@H](O)Cc2ccccc2)cc1
-1

Is composite z-score for COc1ccc([Si](C)(C)[C@@H]2[C@@H](CCn3cc(CCO)nn3)O[C@]3(C(=O)N(Cc4cccc(N5C(=O)c6cccc7cccc5c67)c4)c4ccccc43)[C@H]2C)cc1 at or above 0.1?
1

State whether the measured composite z-score reaches 0.1, counting equality as reaching it, for COCC(=C=CC[C@H](O)c1cccc(OCCO)c1)C[C@H](O)c1cc(Cl)cc(Cl)c1O
-1

---

molecular target: Calmodulin-1 (Homo sapiens) (UniProt P0DP23); assay: small molecules binding calmodulin-1 with EGTA – biochemical, small-molecule microarray, Cy5-labelled CALM1, profiling panel (AID 1111); settings: Cy5-CALM1 binding fluorescence, higher = more signal;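 further: labelled calmodulin applied in Tris saline Tween buffer holding calcium plus EGTA and DTT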
VALUE_KIND: composite z-score
Answer field: number only, no words.

compound_structure=[N-]=[N+]=Nc1ccccc1[C@H]1OC(c2ccc(OCCCO)cc2)=N[C@@]1(CCS(=O)(=O)c1ccccc1)C(=O)NCc1ccccc1 numeric_result=0.937
compound_structure=Cc1c(NC(=O)/C(C#N)=C/c2cccc([N+](=O)[O-])c2)c(=O)n(-c2ccccc2)n1C numeric_result=0.619
compound_structure=COCCOC(=O)N1C(=O)[C@@]2(c3cc(C#CCCO)ccc31)[C@H](c1ccc(OCCO)cc1)N1[C@H](c3ccccc3)[C@H](c3ccccc3)OC(=O)[C@H]1[C@@H]2C(N)=O numeric_result=0.852
compound_structure=O=C1O[C@H](c2ccccc2)[C@H](c2ccccc2)N2[C@H]1[C@@H](C(=O)NC[C@H](O)c1ccccc1)[C@]1(C(=O)Nc3ccc(C#CC4=CCCCC4)cc31)[C@H]2c1ccccc1OCCO numeric_result=1.42
compound_structure=O=C1O[C@H](c2ccccc2)[C@H](c2ccccc2)N2[C@H]1[C@@H](C(=O)N1CCN(c3ncccn3)CC1)[C@]1(C(=O)Nc3ccc(C#CC4=CCCCC4)cc31)[C@H]2c1ccccc1OCCO numeric_result=0.858

Need composite z-score of O=C(NCCN1CCOCC1)[C@@H]1c2ccccc2C(=O)N(Cc2cc(C(F)(F)F)cc(C(F)(F)F)c2)[C@H]1c1ccc(CO)cc1 , thanks.
-0.253

---

z-score by entry:
assay: growth of efflux-deficient E. coli DRC39 – strain DRC39, OD650, 24 h, E. coli filamentation inducers, primary screen (AID 1178);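 further: growth measured as culture turbidity by optical density at 650 nm; test concentration not given here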; details: E. coli DRC39 acrAB, higher = more signal, called active from +8 up or from −8 down
Answer using only a numeral; do not append any unit.

Some entries whose results are on file:
molecule="O=C1OCCC=C[C@H]2OC34C=CCN(c5ccc(Cl)cc5)C(=O)[C@H]3N(CCCO)C(=O)[C@@H]4C12 (some centres undefined)" value_kind=z-score numeric_result=0.881
molecule=CO[C@H]1O[C@H](CO)[C@@H](OC(=O)Nc2cccc(F)c2)[C@H](OC(=O)Nc2ccccc2)[C@H]1OC(=O)Nc1ccccc1 value_kind=z-score numeric_result=1.11

Entry COc1ccc([C@H]2C[C@H]3C(Br)=C[C@@]2(CO)C(=O)[C@]32CO2)cc1 : reported z-score = ?
-0.0919

// z-score lookup, key: CCOC(=O)[C@H]1C/C=C/C[C@H](C(=O)OCC)C(=O)O[C@H]2[C@@H](OC)O[C@H](CO)[C@@H](OC(=O)c3ccc(Br)cc3)[C@@H]2OC1=O
0.612

---

experiment: probe aXIP binding to arrayed compounds – biochemical, NeuroSMM set, 635/667 nm fluorescence, primary screen (AID 1119); settings: small-molecule microarray, higher = more signal, called active from +8 up or from −8 down;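 further: probe is the protein aXip251-270 applied at 1 µg/mL to compound-printed slides; binding of probe to printed compounds measured as 667 nm fluorescence plus signal to noise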
// reported composite Z-score for each item listed
Field format: numeric only.

Recorded results for 5 compounds are shown here.
compound=O=C(CS)NCCCCCNC(=O)[C@@H]1C[C@@H]2C(=O)NCC(=O)N2[C@@H]1c1ccc(O)cc1 numeric_result=2
compound="CCOc1ccc(N2C(=O)CSC2c2cccc([N+](=O)[O-])c2)cc1 (configuration not stated)" numeric_result=0.625
compound=O=C(NC1CC1)[C@@H]1c2ccccc2C(=O)N(C2Cc3ccccc3C2)[C@H]1c1ccc(CO)cc1 numeric_result=-0.358
compound=C=CCN1Cc2ccccc2[C@@H]2OC(c3ccc(OCCCO)cc3)=N[C@]2(CCS(=O)(=O)c2ccccc2)C1=O numeric_result=0.187
compound=CC(C)CNC(=O)[C@@]1(Cc2ccccc2I)c2ccccc2C(=O)N(Cc2ccccc2C(F)(F)F)[C@H]1c1ccc(CO)cc1 numeric_result=0.117

Endpoint output: composite Z-score of OCCCC1=CC(C2CC2)N(Cc2cccc(OC(F)(F)F)c2)CC1 (configuration not stated) . Value?
0.438

Would you mind telling me what composite Z-score value was observed for COc1ccc(C(O)C2C=CC3C(=O)N(C)C(=O)C3N2N(c2ccccc2)c2ccccc2)c2ccccc12 (configuration not stated) ?
1.39

What measured composite Z-score goes with CN1C(=O)C2C=CC(C(O)C=Cc3ccc([N+](=O)[O-])cc3)N(Nc3ccccc3)C2C1=O (configuration not stated) ?
0.268

Quick one: composite Z-score for C=CCN1C(=O)[C@]2(Cc3ccccc3)N=C(c3ccc(OCCCO)cc3)O[C@@H]2c2ccccc21 ?
-0.452

Requested read-out: composite Z-score. Entry: COc1cc(OC)c(C(O)C2C=CC3C(=O)NC(=O)C3N2Nc2ccccn2)cc1Br (configuration not stated)
0.172

Any idea what its composite Z-score is? The compound is [N-]=[N+]=Nc1ccccc1C[C@]1(C(=O)N2CCCCC2)COC(c2ccc(OCCCO)cc2)=N1
-0.218

Looking for the measured composite Z-score of O=C1C2C=CC(C(O)c3ccc(-c4ccccc4)s3)N(Nc3ccccc3)C2C(=O)N1c1ccccc1 (configuration not stated) , can you help?
-0.375

Value lookup for composite Z-score; key = C=C(C(=O)CC[C@H](OC(C)=O)c1ccccc1OCCO)C(C)C
-0.361

---

experiment: growth of efflux-deficient E. coli DRC39 – strain DRC39, OD650, 24 h, E. coli filamentation inducers, primary screen (AID 1178);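 further: growth measured as culture turbidity by optical density at 650 nm; test concentration not given here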; details: E. coli DRC39 acrAB, higher = more signal, called active from +8 up or from −8 down
VALUE_KIND: z-score
Please respond with just the number, no unit label.

# example entries with known answers
compound=O=C(CS)NCCCCCNC(=O)[C@@H]1C[C@@H]2C(=O)NCC(=O)N2[C@@H]1c1ccc(O)cc1 value_kind=z-score numeric_result=-0.401
compound="CCN(CC)c1ccc(N2CC=CC34O[C@@H]5/C=C\\CCC(C)OC(=O)C5[C@H]3C(=O)N(CCCCCO)[C@@H]4C2=O)cc1 (some centres not stated)" value_kind=z-score numeric_result=0.95
compound="C=CCC(OC(C)=O)[C@@H]1[C@@H](N(Cc2ccc(-c3cccc(C(F)(F)F)c3)o2)C(=O)Cc2ccc(OC)cc2)c2cc(OCCCO)ccc2N1C(=O)c1ccc2ccccc2c1 (some centres not stated)" value_kind=z-score numeric_result=0.751
compound=NCCCCCNC(=O)[C@H]1C[C@H]2C(=O)N3CCC[C@H]3C(=O)N2[C@H]1c1ccc(O)cc1 value_kind=z-score numeric_result=-0.363

Return reported z-score; argument: CO[C@H]1O[C@H](CO)[C@@H](OC(=O)Nc2ccc(Br)cc2)[C@@H]2OC(=O)[C@H](Cc3cccc(Br)c3)C/C=C/C[C@@H](Cc3cccc(Br)c3)C(=O)O[C@@H]12
0.778

// lookup z-score for COc1ccc(NC(=O)O[C@H]2[C@H](OC(=O)c3cc4ccccc4[nH]3)[C@@H](OC(=O)c3cc4ccccc4[nH]3)[C@@H](OC)O[C@@H]2CO)cc1
1.13

Entry C=C[C@H](C)[C@@H](OC(=O)Nc1ccc(SC)cc1)c1ccc(O)c2ccccc12 has what z-score?
-0.33
